- measuredTarget: UniProt:P21554
- Sequence (P21554 whole entry): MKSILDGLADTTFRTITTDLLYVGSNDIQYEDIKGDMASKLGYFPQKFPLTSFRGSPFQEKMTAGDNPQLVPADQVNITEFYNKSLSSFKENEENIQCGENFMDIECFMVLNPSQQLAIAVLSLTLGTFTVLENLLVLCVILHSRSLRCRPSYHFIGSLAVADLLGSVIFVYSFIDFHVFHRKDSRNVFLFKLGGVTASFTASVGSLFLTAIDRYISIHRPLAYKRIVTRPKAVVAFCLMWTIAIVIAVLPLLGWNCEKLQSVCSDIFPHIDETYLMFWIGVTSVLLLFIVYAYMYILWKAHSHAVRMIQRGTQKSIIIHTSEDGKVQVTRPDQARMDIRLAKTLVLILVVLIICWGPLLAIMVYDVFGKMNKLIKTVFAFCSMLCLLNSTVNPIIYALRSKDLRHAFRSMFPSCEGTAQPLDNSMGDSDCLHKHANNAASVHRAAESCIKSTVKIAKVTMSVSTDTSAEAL
- assayComment: Agonist activity at recombinant human full length CB1 receptor expressed in HEK293 cell membranes after 2 hrs by [35S]GTP-gammaS binding assay
- Assay type: functional
In this section we review reported Ki values for a set of compounds.
endpointName: Ki (nM)

compound: CCCCCc1cc(O)c2c(c1)OC(C)(C)[C@@H]1C=C[C@@](C)(O)C[C@@H]21
quantitativeResult: 193
--
compound: CCCCCc1cc2c(c(OS(=O)(=O)c3ccc(C)cc3)c1)[C@@H]1CC(C)(OO)C=C[C@H]1C(C)(C)O2 (stereo partly drawn)
quantitativeResult: 48
--
compound: CCCCCc1cc(OC(C)=O)c2c(c1)OC(C)(C)[C@@H]1CC=C(C)C[C@@H]21
quantitativeResult: 43

====

- System: Plasmodium falciparum
- assayComment: Antiplasmodial activity against chloroquine-resistant Plasmodium falciparum W2 infected in red blood cells incubated for 72 hrs by parasite LDH release based colorimetric assay
- Assay type: functional, organism-based
- conditionSet: W2, 72 h
Define the label as Satisfied when IC50 is strictly less than 2 µg/mL and as Not satisfied in all remaining cases.

molecule: C=C1C[C@H]2c3c(O)cc(CCCCC)cc3OC(C)(C)[C@@H]2C[C@H]1O
classification: Satisfied
//
molecule: CCCCCc1cc(O)c2c(c1)OC(C)(C)C1=C2C(OC(C)=O)C(C)(OC)CC1 (stereo not drawn)
classification: Not satisfied
//
molecule: CCCCCC1=CC(=O)C2=C(OC(C)(C)[C@@H]3CC[C@](C)(OCC)C=C23)C1=O
classification: Satisfied
//
molecule: CCCCCc1cc2c(c(OS(=O)(=O)c3ccc(C)cc3)c1)C1=C(CC[C@](C)(O)[C@H]1OCC)C(C)(C)O2
classification: Satisfied
//
molecule: C[C@@H]1CC[C@H]2[C@@H](C)C(=O)O[C@@H]3O[C@@]4(C)CC[C@@H]1[C@]32OO4 [ARTEMISININ]
classification: Satisfied
//
molecule: CCCCCc1cc(O)c2c(c1)OC(C)(C)C1=C2C(OCC)C(C)(O)CC1 (stereo not drawn)
classification: Not satisfied
//
molecule: CCCCCc1cc(OC(C)=O)c2c(c1)OC(C)(C)C1=C2C(O)C(C)(O)CC1 (stereo not drawn)
classification: Not satisfied
//
molecule: C=C1C[C@H]2C3=C(OC(C)(C)[C@@H]2CC1OO)C(=O)C(CCCCC)=CC3=O (stereo in doubt; 25)
classification: Satisfied

====

- measuredTarget: Cannabinoid receptor 2 (Homo sapiens, UniProt P34972)
- Sequence (P34972 whole entry): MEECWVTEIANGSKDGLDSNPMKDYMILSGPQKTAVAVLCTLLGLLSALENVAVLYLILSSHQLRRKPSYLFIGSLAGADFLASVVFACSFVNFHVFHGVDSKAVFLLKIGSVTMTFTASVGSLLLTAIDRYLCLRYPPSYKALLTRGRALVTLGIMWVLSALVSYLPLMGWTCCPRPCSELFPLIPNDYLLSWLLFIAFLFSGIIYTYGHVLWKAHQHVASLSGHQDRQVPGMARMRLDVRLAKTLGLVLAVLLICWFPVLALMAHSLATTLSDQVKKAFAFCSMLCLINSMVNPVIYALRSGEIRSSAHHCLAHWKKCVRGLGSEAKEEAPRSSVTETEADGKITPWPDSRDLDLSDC
- assayComment: Displacement of [3H]CP-55,940 from recombinant human full length CB2 receptor expressed in HEK293 cell membranes after 90 mins by topcount method
Each entry below lists one item and its recorded Ki value.
endpointName: Ki (nM)

molecule: CCCCCc1cc2c(c(OS(=O)(=O)c3ccc(C)cc3)c1)[C@H]1[C@@H](CC=C(C)[C@@H]1OO)C(C)(C)O2
measuredTarget: Cannabinoid receptor 2 (Homo sapiens, UniProt P34972)
endpointName: Ki
quantitativeResult: 426
//
molecule: CCCCCC1=CC(=O)C2=C(OC(C)(C)[C@@H]3CC[C@](C)(OCC)C=C23)C1=O
measuredTarget: Cannabinoid receptor 2 (Homo sapiens, UniProt P34972)
endpointName: Ki
quantitativeResult: 2030
//
molecule: CCCCCc1cc2c(c(OS(=O)(=O)c3ccc(C)cc3)c1)[C@@H]1CC(C)(OO)C=C[C@H]1C(C)(C)O2 (stereo not given in full)
measuredTarget: Cannabinoid receptor 2 (Homo sapiens, UniProt P34972)
endpointName: Ki
quantitativeResult: 211
//
molecule: CCCCCc1cc(OC(C)=O)c2c(c1)OC(C)(C)C1=C2C2OC2(C)CC1 (stereo not given)
measuredTarget: Cannabinoid receptor 2 (Homo sapiens, UniProt P34972)
endpointName: Ki
quantitativeResult: 464
//
molecule: CCCCCc1cc(O)c2c(c1)OC(C)(C)[C@@H]1C=C[C@@](C)(O)C[C@@H]21
measuredTarget: Cannabinoid receptor 2 (Homo sapiens, UniProt P34972)
endpointName: Ki
quantitativeResult: 9.5
//
molecule: C=C1C[C@H]2c3c(cc(CCCCC)cc3OS(=O)(=O)c3ccc(C)cc3)OC(C)(C)[C@@H]2CC1OO (stereo not given in full)
measuredTarget: Cannabinoid receptor 2 (Homo sapiens, UniProt P34972)
endpointName: Ki
quantitativeResult: 1030
//
molecule: CCCCCc1cc(O)c2c(c1)OC(C)(C)C1=C2C(OC(C)=O)C(C)(OC)CC1 (stereo not given)
measuredTarget: Cannabinoid receptor 2 (Homo sapiens, UniProt P34972)
endpointName: Ki
quantitativeResult: 990
//
molecule: CCCCCc1cc2c(c(OS(=O)(=O)c3ccc(C)cc3)c1)[C@@H]1[C@H](O)C(C)=CC[C@H]1C(C)(C)O2
measuredTarget: Cannabinoid receptor 2 (Homo sapiens, UniProt P34972)
endpointName: Ki
quantitativeResult: 552
//
molecule: CCCCCc1cc(O)c2c(c1)OC(C)(C)C1=C2C(O)C(C)(OC)CC1 (stereo not given)
measuredTarget: Cannabinoid receptor 2 (Homo sapiens, UniProt P34972)
endpointName: Ki
quantitativeResult: 300
//
molecule: CCCCCc1cc(OC(C)=O)c2c(c1)OC(C)(C)[C@@H]1CC=C(C)C[C@@H]21
measuredTarget: Cannabinoid receptor 2 (Homo sapiens, UniProt P34972)
endpointName: Ki
quantitativeResult: 158
